Assay method text: COS7 lysate on small-molecule microarray, probe aHis, 635 nm (AID 1123);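 also: z-score combines 667nm fluorescence intensity with signal-to-noise per printed compound spot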
Particulars: COS7 cell lysate, fluorescence, higher = more signal
Measured parameter: composite z-score
Lab note: write the figure by itself, no unit.

COC(=O)C1=C(C)[C@@H](O)[C@@H](C)[C@H](c2c(OC)c(OC)c(C)c(OC)c2OC)O1 | 0.206

Quick one: composite z-score for CC(CCN1CCCCc2nc(C)c(C)cc21)=NOC(C)CN1CCCc2nc(C)c(C)cc21 (centres undefined) ?
1.79

Quick one: composite z-score for CCOC(=O)C[C@H]1[C@H](OC(=O)c2ccc(C(=O)c3ccccc3)cc2)[C@@H](NC(=O)c2ccc(-c3ccccc3)cc2)c2cc(OCCCO)ccc2N1C(=O)c1ccc2ccccc2n1 ?
0.71

Quick one: composite z-score for COCCOC(=O)N1C(=O)[C@@]2(c3ccccc31)[C@H](C(N)=O)[C@H]1C(=O)O[C@H](c3ccccc3)[C@H](c3ccccc3)N1[C@@H]2c1ccccc1OCCO ?
2.02

Where do these numbers come from? They come from PubChem BioAssay.
